Reference for the values: the supplement of paper PMC10567573

B1: SNAP91 (parent)
chain: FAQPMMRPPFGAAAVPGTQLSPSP

- Variants of: B1
- PROTOCOL_DESCRIPTION: protein stability index of a GFP-peptide fusion (GPS, HEK-293T) (PSI 1-6); higher = more stable;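 note: lentivirally expressed fusions sorted by FACS into six bins by GFP to DsRed ratio, PSI derived from sequencing read proportions per bin multiplied by bin number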
- CONDITIONS: c terminus: a fixed tail appended
Parameter threshold = 3. Response is 1 (yes) when protein stability index meets or exceeds it, else 0 (no).

| SEQUENCE_DATA | ANSWER_LABEL |
| --- | --- |
| FAQPMMRPPFGAAAVPGRQLSPSP [T18R] | 1 (yes) |
| FAQPMMRPPFGAAASPGTQLSPSP [V15S] | 1 (yes) |
| FAQPMWRPPFGAAAVPGTQLSPSP [M6W] | 0 (no) |
| FAQPMMRPPFGAAAVCGTQLSPSP [P16C] | 0 (no) |
| FAQPMMRPPFGAAAVPGTQLSGSP [P22G] | 1 (yes) |
| FAQPMMRPIFGAAAVPGTQLSPSP [P9I] | 0 (no) |
| FAQPMMRIPFGAAAVPGTQLSPSP [P8I] | 0 (no) |
| FAQPMMRPPFGAAAVNGTQLSPSP [P16N] | 1 (yes) |
| FAQPMMRPPFGAAAVPGTQLSRSP [P22R] | 1 (yes) |
| FAQPMMRPPFGAAAVPGPQLSPSP [T18P] | 1 (yes) |
| FAQPMMRPPFGAGAVPGTQLSPSP [A13G] | 1 (yes) |
| FAQPMMRPPFGKAAVPGTQLSPSP [A12K] | 1 (yes) |
| FAQPMMRPPFGAAAVPGTQLSPSR [P24R] | 0 (no) |
| FAQPMMRPPFGAAAVPGTQLSPSG [P24G] | 1 (yes) |
| FAQPMMRPPFGAAARPGTQLSPSP [V15R] | 1 (yes) |
| FAQPMMRPPFFAAAVPGTQLSPSP [G11F] | 0 (no) |
| FAQPMMRPPFGAAANPGTQLSPSP [V15N] | 1 (yes) |
| FAQPMMRPPFGAAAVPGQQLSPSP [T18Q] | 1 (yes) |
| FAQPMMRPPFGAAAVPHTQLSPSP [G17H] | 1 (yes) |
